Hi there, I'd appreciate the recorded REGN78.L15 ab raw for every entry that follows.
Biological target: human IL-6Rα (hIL-6Rα), barcoded negative control antigen (human) (UniProt P08887)
Sequence (P08887 20-358 limits assumed): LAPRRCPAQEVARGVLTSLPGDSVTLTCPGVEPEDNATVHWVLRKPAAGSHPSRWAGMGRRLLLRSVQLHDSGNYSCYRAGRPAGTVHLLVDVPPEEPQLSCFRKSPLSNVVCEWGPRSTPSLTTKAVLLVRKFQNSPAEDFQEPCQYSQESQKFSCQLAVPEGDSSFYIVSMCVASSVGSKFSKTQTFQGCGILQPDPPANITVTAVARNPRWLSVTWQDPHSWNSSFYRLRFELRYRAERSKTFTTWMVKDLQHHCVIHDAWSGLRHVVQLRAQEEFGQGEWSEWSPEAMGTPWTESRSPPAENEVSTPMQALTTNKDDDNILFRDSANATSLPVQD
Experiment: barcoded-antigen count on source cell (scRNA-seq)
Give bare numbers, in counts.

INSERT INTO assay_data (binder, reading) VALUES
  ('Table 1 Line # 35 antibody (SP_B_cell) (antibody, human IgG4, V domains shown) VH: EVQLVESGGGLVKPGGSLRLSCAASGFTFSSYSMNWVRQAPGKGLEWVSSISSSSSYIYYADSVKGRFTISRDNAKNSLYLQMNSLRAEDTAVYYCARDRSSSPLENWGQGTLVTVSS VL: DIQMTQSPSSVSASVGDRVTITCRASQGISSWLAWYQQKPGKAPKLLIYAASSLQSGVPSRFSGSGSGTDFTLTISSLQPEDFATYYCQQANSFPITFGQGTRLEIK', 33);

Look up REGN78.L15 ab raw for this binder: Table 1 Line # 11 antibody (BM_Plasma_cell) (antibody, human IgG4, V domains shown) VH: EVQLVESGGGLVQPGRSLRLSCAASGFTFDDYAMHWVRQAPGKGLEWVSGISWNSGSIGYADSVKGRFTISRDNAKNSLYLQMNSLRAEDTALYYCARDYSSAWYGYFDSWGQGTLVTVSS VL: DIQMTQSPSSLSASVGDRVTITCRASQGINNYLAWYQQKPGKIPKLLIFTASTLQSGVPSRFSGSGSGTDFTLTINSLQPEDVATYYCQNYNSVPRTFGQGTKVEIK
115

Cited source: patent US20230349919A1
